OBSERVED_PROPERTY: AC50

Q: Report its AC50 with Sodium-dependent dopamine transporter (Homo sapiens, UniProt Q01959) as the test system: `C[C@]12C=CC(=O)C=C1C(Cl)=C[C@@H]1[C@@H]2[C@@H](O)C[C@@]2(C)[C@H]1CC[C@]2(O)C(=O)CO`
Sequence (Q01959 whole entry): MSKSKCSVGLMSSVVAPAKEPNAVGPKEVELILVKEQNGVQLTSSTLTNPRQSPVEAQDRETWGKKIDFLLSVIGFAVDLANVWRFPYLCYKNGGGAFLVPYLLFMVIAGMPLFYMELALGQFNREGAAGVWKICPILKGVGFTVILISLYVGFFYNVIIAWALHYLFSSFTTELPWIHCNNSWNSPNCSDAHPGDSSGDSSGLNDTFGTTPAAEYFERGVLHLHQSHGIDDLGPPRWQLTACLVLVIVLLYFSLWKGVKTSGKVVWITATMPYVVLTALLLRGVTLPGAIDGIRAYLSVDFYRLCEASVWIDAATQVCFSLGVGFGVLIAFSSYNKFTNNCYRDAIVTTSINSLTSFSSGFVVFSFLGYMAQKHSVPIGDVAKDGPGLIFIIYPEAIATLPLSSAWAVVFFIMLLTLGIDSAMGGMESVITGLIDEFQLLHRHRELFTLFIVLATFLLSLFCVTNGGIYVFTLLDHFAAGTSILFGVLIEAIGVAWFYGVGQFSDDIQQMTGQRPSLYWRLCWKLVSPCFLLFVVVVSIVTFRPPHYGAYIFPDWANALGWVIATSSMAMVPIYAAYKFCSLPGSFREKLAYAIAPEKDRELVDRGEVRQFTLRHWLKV
Ans: > 30 µM

Q: Return reported AC50 for target or system Sodium-dependent dopamine transporter (Homo sapiens, UniProt Q01959), item `CN(C)CCOCC(=O)NC12CC3CC(CC(C3)C1)C2` . Also: assay procedure not described here.
Ans: > 30 µM

Q: Provide Sodium-dependent dopamine transporter (Homo sapiens, UniProt Q01959) AC50 reading for `CN1CCCN=C1/C=C/c1cccc(O)c1` .
Ans: > 30 µM

Q: Fetch value of AC50 on Sodium-dependent dopamine transporter (Homo sapiens, UniProt Q01959) for `CN(C)CCN(Cc1ccccc1)c1ccccn1` .
Ans: 1.3 µM

Q: Give Sodium-dependent dopamine transporter (Homo sapiens, UniProt Q01959) AC50 for the following molecule: CCC1(C)CC(=O)NC1=O (centres undefined) [ETHOSUXIMIDE]
Ans: > 10 µM

Q: Would you please give the reported AC50 of CS(=O)(=O)Nc1ccc([N+](=O)[O-])cc1Oc1ccccc1 [NIMESULIDE] with Sodium-dependent dopamine transporter (Homo sapiens, UniProt Q01959)?
Ans: 9 µM

Q: GET AC50 where system = Sodium-dependent dopamine transporter (Homo sapiens, UniProt Q01959) and item = `C=C(c1ccccc1OCc1cccc(Cl)c1)n1ccnc1`; also: assay procedure not described here
Ans: > 30 µM

Q: // fetch AC50 for `O=C(O)c1ccc2nc(-c3cc(Cl)cc(Cl)c3)oc2c1` ; system: Sodium-dependent dopamine transporter (Homo sapiens, UniProt Q01959); also: assay procedure not described here
Ans: > 30 µM

Q: Give AC50; test system Sodium-dependent dopamine transporter (Homo sapiens, UniProt Q01959); molecule CCN1C(=O)NC(c2ccccc2)C1=O (centres undefined); also: assay procedure not described here
Ans: > 30 µM

Q: Write down the reported AC50 (system: Sodium-dependent dopamine transporter (Homo sapiens, UniProt Q01959)) of `CCn1c(=O)c2c(nc(/C=C/c3ccc(OC)c(OC)c3)n2C)n(CC)c1=O`; also: assay procedure not described here
Ans: > 30 µM

Q: # lookup: Sodium-dependent dopamine transporter (Homo sapiens, UniProt Q01959) AC50, key = `CC(C)(N)Cc1ccccc1`
Ans: > 30 µM

Q: Quote Sodium-dependent dopamine transporter (Homo sapiens, UniProt Q01959) AC50 for entry `C[C@H](Nc1ncnc2[nH]cnc12)c1cc2cccc(Cl)c2c(=O)n1-c1ccccc1` .
Ans: > 30 µM

Q: Report AC50 under test system Sodium-dependent dopamine transporter (Homo sapiens, UniProt Q01959) for CC(C)(C)NCC(O)COc1cccc2c1CC(O)C(O)C2 (centres undefined) . Also: assay procedure not described here.
Ans: > 10 µM

Q: Lab note: record AC50 of `O=C(O)COC(=O)Cc1ccccc1Nc1c(Cl)cccc1Cl` tested on Sodium-dependent dopamine transporter (Homo sapiens, UniProt Q01959). Also: assay procedure not described here.
Ans: > 30 µM

Q: Consider the molecule `O=C(O)[C@H]1/C(=C/CO)O[C@@H]2CC(=O)N21` tested on Sodium-dependent dopamine transporter (Homo sapiens, UniProt Q01959); state its AC50. Also: assay procedure not described here.
Ans: > 30 µM

Q: Please tell me the measured AC50 for `Cc1ccc(O)c([C@H](CCN(C(C)C)C(C)C)c2ccccc2)c1` ; system: Sodium-dependent dopamine transporter (Homo sapiens, UniProt Q01959). Also: assay procedure not described here.
Ans: > 10 µM

Q: Specify the recorded AC50 for `CC[N+](CC)(CCNC(=O)C(=O)NCC[N+](CC)(CC)Cc1ccccc1Cl)Cc1ccccc1Cl` , system: Sodium-dependent dopamine transporter (Homo sapiens, UniProt Q01959). Also: assay procedure not described here.
Ans: > 30 µM

Q: Jot down AC50 (Sodium-dependent dopamine transporter (Homo sapiens, UniProt Q01959)) of `Cn1cnc2c(F)c(Nc3ccc(Br)cc3F)c(C(=O)NOCCO)cc21` .
Ans: > 30 µM

Q: State recorded AC50 with Sodium-dependent dopamine transporter (Homo sapiens, UniProt Q01959), entry `COC(=O)[C@H]1[C@H]2C[C@@H]3c4[nH]c5ccccc5c4CCN3C[C@H]2C[C@@H](OC(=O)c2cc(OC)c(OC)c(OC)c2)[C@@H]1OC` , no comment.
Ans: > 10 µM

----------
target: Cholecystokinin receptor type A (Homo sapiens); also: assay procedure not described here
Sequence (P32238 whole entry): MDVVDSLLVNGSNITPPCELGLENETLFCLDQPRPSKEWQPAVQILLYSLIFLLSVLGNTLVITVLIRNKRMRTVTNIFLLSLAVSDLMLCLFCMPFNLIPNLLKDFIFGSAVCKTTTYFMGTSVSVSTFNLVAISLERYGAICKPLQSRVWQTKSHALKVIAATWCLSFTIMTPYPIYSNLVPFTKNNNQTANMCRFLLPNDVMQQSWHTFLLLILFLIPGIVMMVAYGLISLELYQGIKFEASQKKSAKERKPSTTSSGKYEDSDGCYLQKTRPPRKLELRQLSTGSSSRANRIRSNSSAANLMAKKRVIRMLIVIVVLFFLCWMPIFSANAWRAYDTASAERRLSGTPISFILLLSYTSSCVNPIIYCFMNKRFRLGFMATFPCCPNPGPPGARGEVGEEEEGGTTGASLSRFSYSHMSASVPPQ
OBSERVED_PROPERTY: AC50

Q: Indicate the recorded AC50 value for this compound: `O=c1[nH]cc(F)c(=O)[nH]1`
Ans: > 30 µM

Q: Dear colleague, please send me the reported AC50 for `CC1=C(C(=O)O)N2C(=O)[C@@H](NC(=O)[C@H](N)C3=CCC=CC3)[C@H]2SC1` when you can.
Ans: > 30 µM

Q: Give a short answer stating reported AC50 for CN1C2CCCC1CC(NC(=O)c1nn(C)c3ccccc13)C2 (stereo not given) .
Ans: > 30 µM

Q: # return recorded AC50 for input `CC(=O)OCC1=C(C(=O)O)N2C(=O)[C@@H](NC(=O)Cc3cccs3)[C@H]2SC1`
Ans: > 30 µM

Q: Look up AC50 of `O=C(O)[C@H]1/C(=C/CO)O[C@@H]2CC(=O)N21` and report it.
Ans: > 30 µM

Q: Please look at this compound and report its AC50: CCN1C(=O)NC(c2ccccc2)C1=O (stereo not given)
Ans: > 30 µM

Q: Consider the compound `COc1ccc(-n2nc(C(N)=O)c3c2C(=O)N(c2ccc(N4CCCCC4=O)cc2)CC3)cc1` . State its measured AC50.
Ans: > 30 µM

Q: In one line, give reported AC50 of the entry `CCCCOC(=O)C(=O)Nc1cccc(-c2nnn[nH]2)c1` .
Ans: > 30 µM

Q: Using the record for CC(=O)SCC(Cc1ccccc1)C(=O)NCC(=O)OCc1ccccc1 (stereo not given) , state its measured AC50.
Ans: > 30 µM

Q: Given the compound OCCOCCN1CCN(C(c2ccccc2)c2ccc(Cl)cc2)CC1 (stereo not given) [HYDROXYZINE] , write its reported AC50.
Ans: > 30 µM

Q: Give AC50 for the following compound: CN(C)CCC(O)(c1ccccc1)c1ccccc1Cl (stereo not given)
Ans: > 10 µM

Q: Assign AC50 to the following record: CN1CC2c3ccccc3Oc3ccc(Cl)cc3C2C1 (stereo not given)
Ans: > 30 µM

Q: Output measured AC50 for this item: `C[C@H](CS)C(=O)N1CCC[C@H]1C(=O)O`
Ans: > 30 µM

Q: Let me know recorded AC50 for `CCOc1ccccc1OCCN[C@H](C)Cc1ccc(OC)c(S(N)(=O)=O)c1` , thanks.
Ans: > 30 µM

Q: // Input: `CCC1(c2ccccc2)C(=O)NCNC1=O` . Output its AC50 only.
Ans: > 10 µM

Q: Fill in AC50 for record OCC(O)COc1ccc(Cl)cc1 (stereo not given)
Ans: > 10 µM

Q: Determine from records and report AC50 for CC(C)(C)NCC(O)COc1cccc2c1CC(O)C(O)C2 (stereo not given)
Ans: > 10 µM

Q: Report AC50, nothing else, for this compound: `OCCN(CCO)c1nc(N2CCCCC2)c2nc(N(CCO)CCO)nc(N3CCCCC3)c2n1`
Ans: > 30 µM

Q: Tell me AC50 reported for `C[C@]12CCC(=O)C=C1C=C[C@@H]1[C@@H]2CC[C@@]2(C)[C@H]1CC[C@@]21CCC(=O)O1`
Ans: > 30 µM

Q: Answer with the recorded AC50 for the compound listed here: `Cc1ccc(-c2ncc(Cl)cc2-c2ccc(S(C)(=O)=O)cc2)cn1`
Ans: > 10 µM

----------
As a worked illustration, we turn to AC50 data collected for Melanocortin receptor 3 (Homo sapiens, UniProt P41968).

Q: Assign AC50 to the following record: CC(C)(C)NCC(O)COc1cccc2c1CC(O)C(O)C2 (stereo not drawn)
Ans: > 10 µM

Q: Quickly give me recorded AC50 for Cc1cccc(Nc2ccncc2S(=O)(=O)NC(=O)NC(C)C)c1 [TORSEMIDE]
Ans: > 30 µM

Q: Query AC50 for `CCOc1cc2ncc(C#N)c(Nc3ccc(OCc4ccccn4)c(Cl)c3)c2cc1NC(=O)/C=C/CN(C)C`
Ans: > 30 µM

Q: Give the value of AC50 reported for the following: `CN1C(=O)CN=C(c2ccccc2F)c2cc([N+](=O)[O-])ccc21`
Ans: 18.6 µM

Q: Fill in AC50 for record CCC(NC(C)C)C(O)c1ccc(O)c(O)c1 (stereo not drawn)
Ans: > 30 µM

Q: Supply AC50 value. Item: `CO[C@@H]1[C@@H](OC(N)=O)[C@@H](O)[C@H](Oc2ccc3c(O)c(NC(=O)c4ccc(O)c(CC=C(C)C)c4)c(=O)oc3c2C)OC1(C)C`
Ans: > 30 µM

Q: Look up and state reported AC50 for `CN(C)CCOCC(=O)NC12CC3CC(CC(C3)C1)C2`
Ans: > 30 µM

Q: Provide only the value of recorded AC50 for `CC(C)(CO)c1cc2cc(NC(=O)C3(c4ccc5c(c4)OC(F)(F)O5)CC3)c(F)cc2n1C[C@@H](O)CO`
Ans: > 30 µM
